target: Polycomb protein EED (Homo sapiens, UniProt O75530)
Sequence (O75530 whole entry): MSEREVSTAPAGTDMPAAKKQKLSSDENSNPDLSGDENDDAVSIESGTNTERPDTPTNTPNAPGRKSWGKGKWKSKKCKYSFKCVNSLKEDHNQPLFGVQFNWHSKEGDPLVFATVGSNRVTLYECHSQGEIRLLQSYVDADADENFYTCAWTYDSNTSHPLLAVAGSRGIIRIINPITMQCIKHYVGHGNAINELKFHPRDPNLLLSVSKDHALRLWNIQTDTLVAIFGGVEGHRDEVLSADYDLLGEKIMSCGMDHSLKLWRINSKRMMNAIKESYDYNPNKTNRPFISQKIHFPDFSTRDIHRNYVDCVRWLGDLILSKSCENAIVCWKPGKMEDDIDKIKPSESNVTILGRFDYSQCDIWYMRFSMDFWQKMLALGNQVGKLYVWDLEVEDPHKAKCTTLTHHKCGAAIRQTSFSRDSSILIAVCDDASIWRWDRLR
pKd: −log10 of the molar value.
measured.metric: pKd

{"columns": ["compound.structure", "numeric.result"],
 "data": [
  ["Cc1ncsc1-c1ccc(CNC(=O)[C@@H]2C[C@@H](O)CN2C(=O)[C@@H](NC(=O)CCCCCCNC(=O)CCCCN2CCN(c3ccc(-c4cnc(NCc5ccco5)n5cnnc45)cc3)CC2)C(C)(C)C)cc1", 5.52]
]}

* * *

biological target: Protein cereblon/E3 ubiquitin-protein ligase RING2 (Homo sapiens, UniProt Q96SW2+Q99496); test: PROTAC activity at CRBN/RING1B in human K562 cells assessed as degradation of RING1B protein expression at 0.1 to 10 uM incubated for 24 hrs by Western blotting analysis; format: cell-based; conditions: dose 0.1-10 µM
Sequence (Q96SW2 whole entry): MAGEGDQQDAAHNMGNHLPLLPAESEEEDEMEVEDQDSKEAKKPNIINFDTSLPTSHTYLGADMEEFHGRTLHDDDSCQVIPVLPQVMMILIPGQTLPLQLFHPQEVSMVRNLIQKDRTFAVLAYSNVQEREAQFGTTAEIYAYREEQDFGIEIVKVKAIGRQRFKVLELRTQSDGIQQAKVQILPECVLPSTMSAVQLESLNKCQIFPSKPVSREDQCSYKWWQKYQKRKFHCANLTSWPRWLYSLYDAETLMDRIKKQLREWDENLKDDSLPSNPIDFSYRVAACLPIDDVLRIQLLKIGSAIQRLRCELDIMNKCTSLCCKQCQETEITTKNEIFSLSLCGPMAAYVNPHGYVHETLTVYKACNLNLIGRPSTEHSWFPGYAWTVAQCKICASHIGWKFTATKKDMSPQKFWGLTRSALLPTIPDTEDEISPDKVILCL
Sequence (Q99496 2-336 partner limits assumed): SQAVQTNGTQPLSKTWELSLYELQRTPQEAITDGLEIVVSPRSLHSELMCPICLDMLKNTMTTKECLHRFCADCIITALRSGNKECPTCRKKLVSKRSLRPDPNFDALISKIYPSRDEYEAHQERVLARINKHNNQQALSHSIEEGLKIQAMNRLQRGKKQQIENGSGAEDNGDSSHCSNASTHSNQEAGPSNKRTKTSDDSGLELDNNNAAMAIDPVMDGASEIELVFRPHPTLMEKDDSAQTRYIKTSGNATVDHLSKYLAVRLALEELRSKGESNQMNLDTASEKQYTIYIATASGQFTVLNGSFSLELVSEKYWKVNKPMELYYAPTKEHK
Calls of active or inactive are those of the source. The rule behind the calls is not given here.
measured.metric: Activity

{"columns": ["compound", "measured.metric", "result"],
 "data": [
  ["O=C(CCOCCOCCOCCOCCNc1cccc2c1C(=O)N(C1CCC(=O)NC1=O)C2=O)NCCCCN1CCN(c2ccc(-c3cnc(NCc4ccco4)n4cnnc34)cc2)CC1 (stereo not drawn)", "Activity", "inactive"],
  ["O=C(CCCNc1cccc2c1C(=O)N(C1CCC(=O)NC1=O)C2=O)NCCCCN1CCN(c2ccc(-c3cnc(NCc4ccco4)n4cnnc34)cc2)CC1 (stereo not drawn)", "Activity", "inactive"],
  ["O=C(CCCCCNc1cccc2c1C(=O)N(C1CCC(=O)NC1=O)C2=O)NCCCCN1CCN(c2ccc(-c3cnc(NCc4ccco4)n4cnnc34)cc2)CC1 (stereo not drawn)", "Activity", "inactive"]
]}

* * *

target: Protein cereblon/Polycomb protein SUZ12 (Homo sapiens) (UniProt Q15022+Q96SW2); assay: PROTAC activity at CRBN/SUZ12 in human K562 cells assessed as degradation of SUZ12 protein expression at 0.1 to 10 uM incubated for 24 hrs by Western blotting analysis; format: cell-based; settings: dose 0.1-10 µM
Sequence (Q15022 whole entry, looked up): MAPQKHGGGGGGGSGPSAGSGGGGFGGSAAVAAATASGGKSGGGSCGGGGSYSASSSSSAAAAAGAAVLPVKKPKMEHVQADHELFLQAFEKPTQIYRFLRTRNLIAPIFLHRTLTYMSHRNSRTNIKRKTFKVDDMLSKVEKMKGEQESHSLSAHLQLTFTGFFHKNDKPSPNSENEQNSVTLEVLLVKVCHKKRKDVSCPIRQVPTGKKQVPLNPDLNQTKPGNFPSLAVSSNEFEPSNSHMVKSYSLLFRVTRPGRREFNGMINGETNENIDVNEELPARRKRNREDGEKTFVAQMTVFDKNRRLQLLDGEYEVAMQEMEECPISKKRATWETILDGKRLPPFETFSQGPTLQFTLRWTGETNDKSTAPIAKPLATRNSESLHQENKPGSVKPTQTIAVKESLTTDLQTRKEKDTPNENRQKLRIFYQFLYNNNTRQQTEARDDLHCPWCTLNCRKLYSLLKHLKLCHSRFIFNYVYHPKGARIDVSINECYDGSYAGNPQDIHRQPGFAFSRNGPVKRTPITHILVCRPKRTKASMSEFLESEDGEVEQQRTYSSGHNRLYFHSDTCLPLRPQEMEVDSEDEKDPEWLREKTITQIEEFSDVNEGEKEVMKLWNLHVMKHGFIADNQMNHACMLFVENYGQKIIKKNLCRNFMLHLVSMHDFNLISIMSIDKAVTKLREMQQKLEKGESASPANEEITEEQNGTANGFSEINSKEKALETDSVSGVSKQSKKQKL
Sequence (Q96SW2 whole entry, looked up): as the sequence (Q96SW2 whole entry) above
The source made the active and inactive calls. The rule behind the calls is not given here.
Possible outcomes: y = active, n = inactive

{"columns": ["molecule", "label.class"],
 "data": [
  ["O=C(CCCNc1cccc2c1C(=O)N(C1CCC(=O)NC1=O)C2=O)NCCCCN1CCN(c2ccc(-c3cnc(NCc4ccco4)n4cnnc34)cc2)CC1 (stereo not drawn)", "n"],
  ["O=C(CCCCCNc1cccc2c1C(=O)N(C1CCC(=O)NC1=O)C2=O)NCCCCN1CCN(c2ccc(-c3cnc(NCc4ccco4)n4cnnc34)cc2)CC1 (stereo not drawn)", "n"],
  ["O=C(CNc1cccc2c1C(=O)N(C1CCC(=O)NC1=O)C2=O)NCCCCN1CCN(c2ccc(-c3cnc(NCc4ccco4)n4cnnc34)cc2)CC1 (stereo not drawn)", "y"]
]}

* * *

test: Drug concentration in Swiss albino mouse plasma at 50 mg/kg,ip administration measured after 8 hrs by LC-MS/MS analysis; format: ADME, organism-based

{"columns": ["compound", "concentration at 8 h"],
 "data": [
  ["O=C(CNc1cccc2c1C(=O)N(C1CCC(=O)NC1=O)C2=O)NCCCCN1CCN(c2ccc(-c3cnc(NCc4ccco4)n4cnnc34)cc2)CC1 (stereo unspecified)", "> 500 nM"]
]}

* * *

target: Protein cereblon/Polycomb protein EED (Homo sapiens, UniProt O75530+Q96SW2); assay: PROTAC activity at CRBN/EED in human K562 cells assessed as degradation of EED protein expression at 0.1 to 10 uM incubated for 24 hrs by Western blotting analysis; assay type: cell-based; settings: dose 0.1-10 µM
Sequence (O75530 2-441 limits assumed): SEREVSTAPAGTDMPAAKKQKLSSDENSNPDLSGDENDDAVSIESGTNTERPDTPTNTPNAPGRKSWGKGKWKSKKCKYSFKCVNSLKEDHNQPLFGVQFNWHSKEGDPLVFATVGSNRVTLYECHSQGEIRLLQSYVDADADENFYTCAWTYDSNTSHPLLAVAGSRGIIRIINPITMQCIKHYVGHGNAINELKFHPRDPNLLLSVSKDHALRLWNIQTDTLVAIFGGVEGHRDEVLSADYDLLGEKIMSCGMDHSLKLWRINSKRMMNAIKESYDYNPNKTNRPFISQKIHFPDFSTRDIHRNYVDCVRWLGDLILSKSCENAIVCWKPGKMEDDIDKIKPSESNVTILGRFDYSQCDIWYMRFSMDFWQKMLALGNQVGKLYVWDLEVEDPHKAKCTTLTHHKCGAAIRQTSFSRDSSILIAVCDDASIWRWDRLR
Sequence (Q96SW2 whole entry partner): as the sequence (Q96SW2 whole entry) above
Calls of active or inactive are those of the source. No cut-off for these calls is given here.
Possible outcomes: active, inactive

{"columns": ["compound", "label.class"],
 "data": [
  ["O=C(CCOCCNc1cccc2c1C(=O)N(C1CCC(=O)NC1=O)C2=O)NCCCCN1CCN(c2ccc(-c3cnc(NCc4ccco4)n4cnnc34)cc2)CC1 (stereo not drawn)", "inactive"],
  ["O=C(CCCCCNc1cccc2c1C(=O)N(C1CCC(=O)NC1=O)C2=O)NCCCCN1CCN(c2ccc(-c3cnc(NCc4ccco4)n4cnnc34)cc2)CC1 (stereo not drawn)", "inactive"],
  ["O=C(CCOCCOCCOCCNc1cccc2c1C(=O)N(C1CCC(=O)NC1=O)C2=O)NCCCCN1CCN(c2ccc(-c3cnc(NCc4ccco4)n4cnnc34)cc2)CC1 (stereo not drawn)", "inactive"],
  ["O=C(CCCCNc1cccc2c1C(=O)N(C1CCC(=O)NC1=O)C2=O)NCCCCN1CCN(c2ccc(-c3cnc(NCc4ccco4)n4cnnc34)cc2)CC1 (stereo not drawn)", "inactive"],
  ["O=C(CCNc1cccc2c1C(=O)N(C1CCC(=O)NC1=O)C2=O)NCCCCN1CCN(c2ccc(-c3cnc(NCc4ccco4)n4cnnc34)cc2)CC1 (stereo not drawn)", "inactive"],
  ["O=C(CCCNc1cccc2c1C(=O)N(C1CCC(=O)NC1=O)C2=O)NCCCCN1CCN(c2ccc(-c3cnc(NCc4ccco4)n4cnnc34)cc2)CC1 (stereo not drawn)", "inactive"],
  ["O=C(CCOCCOCCNc1cccc2c1C(=O)N(C1CCC(=O)NC1=O)C2=O)NCCCCN1CCN(c2ccc(-c3cnc(NCc4ccco4)n4cnnc34)cc2)CC1 (stereo not drawn)", "active"],
  ["O=C(CCOCCOCCOCCOCCNc1cccc2c1C(=O)N(C1CCC(=O)NC1=O)C2=O)NCCCCN1CCN(c2ccc(-c3cnc(NCc4ccco4)n4cnnc34)cc2)CC1 (stereo not drawn)", "inactive"]
]}
